TEST NAME: Inhibition of Hedgehog signaling pathway in Sufu-deficient mouse C3H10T1/2 cells assessed as reduction in oxysterol-induced Gli1 mRNA expression after 24 hrs by q-PCR analysis
TEST CONTEXT: C3H 10T1/2, 24 h
# maps each entry to its pIC50
In textbook form, pIC50 equals minus log to base ten of the concentration in mol/L.

1. C[C@H](CCCC(C)(C)O)[C@H]1CC[C@H]2[C@@H](Nc3ccc(O)cc3)CCC[C@]12C | 5.54

Let's switch to this compound now.
Reported pIC50 ( `CC(C)CCC[C@@H](C)[C@H]1CC[C@H]2[C@@H](Nc3ccc(O)cc3)CCC[C@]12C` ) = 5.51
